- assayed system: human JAK1 (a.a. 837-1142) (Homo sapiens)
- Construct: human JAK1 (a.a. 837-1142); His tag (N); made in house; host or cells: insect cells (baculovirus)
- test details: In vitro JAK kinase assay (HTRF, phosphorylation of a biotinylated peptide), JAK1
- Assay type: biochemical
- stated conditions: read-out: JAK1 IC50
Structures can show the parent of a compound that is named as a salt.
# IC50 listing for each entry below
measurement type: IC50 (nM)

[[record]]
compound = "O=C(Cc1nc2ccccc2[nH]1)Nc1ccc2cc1CCc1cccc(c1)Nc1ncc(Cl)c(n1)N2 [Example C44, bis(trifluoroacetate)]"
measurement_type = "IC50"
value_qualifier = "="
numeric_value = 70

[[record]]
compound = "O=C1NCc2cccc(c2)Nc2nc(ncc2Cl)Nc2cccc1c2 [Example C5, hydrochloride]"
measurement_type = "IC50"
value_qualifier = ">"
numeric_value = 1000

[[record]]
compound = "Cc1cnc2nc1Nc1ccc(NC(=O)CC3CCN(c4nncs4)CC3)c(c1)CCc1cccc(c1)N2 [Example C53, trifluoroacetate]"
measurement_type = "IC50"
value_qualifier = "="
numeric_value = 39

[[record]]
compound = "Clc1cnc2nc1Nc1cccc(c1)/C=C\\c1cc(ccn1)N2"
measurement_type = "IC50"
value_qualifier = "="
numeric_value = 10


====

- assayed system: human JAK1 (a.a. 837-1142) (Homo sapiens, UniProt P23458)
- Construct: human JAK1 (a.a. 837-1142); His tag (N); made in house; host or cells: insect cells (baculovirus)
- Sequence (P23458 849-1154): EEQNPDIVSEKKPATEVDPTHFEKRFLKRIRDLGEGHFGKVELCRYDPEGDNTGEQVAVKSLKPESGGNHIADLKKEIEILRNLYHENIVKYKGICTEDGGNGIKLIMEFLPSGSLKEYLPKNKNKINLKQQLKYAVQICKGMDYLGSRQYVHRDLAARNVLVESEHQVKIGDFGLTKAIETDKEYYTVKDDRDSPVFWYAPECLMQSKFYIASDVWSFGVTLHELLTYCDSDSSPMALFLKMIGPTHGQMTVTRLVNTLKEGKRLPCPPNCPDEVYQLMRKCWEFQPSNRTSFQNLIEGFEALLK
- test details: In vitro JAK kinase assay (HTRF, phosphorylation of a biotinylated peptide), JAK1
- Type: biochemical
- stated conditions: Table D1; read-out: JAK1 IC50
pIC50: −log10 of the molar value. Structures can show the parent of a compound that is named as a salt.
# if value of pIC50 reaches 8, tag yes (1); if it stays below, tag no (0)

[[record]]
compound = "COc1ccccc1N1CCN(C(=O)COc2ccc3cc2CCc2cncc(c2)Nc2ncc(Cl)c(n2)N3)CC1 [Example D241, tris(trifluoroacetate)]"
class_assignment = "no (0)"

[[record]]
compound = "CC(=O)N1CCC[C@H](CC(=O)Nc2ccc3cc2CCc2cccc(c2)Nc2ncc(Cl)c(n2)N3)C1 [Example D201, trifluoroacetate]"
class_assignment = "no (0)"

[[record]]
compound = "O=C(COc1ccc2cc1CCc1cncc(c1)Nc1ncc(Cl)c(n1)N2)N1CCN(c2cnccn2)CC1 [Example D232, tris(trifluoroacetate)]"
class_assignment = "no (0)"

[[record]]
compound = "N#CCC(=O)N1CCN(C(=O)COc2ccc3cc2CCc2cncc(c2)Nc2ncc(Cl)c(n2)N3)CC1 [Example D269, bis(trifluoroacetate)]"
class_assignment = "no (0)"

[[record]]
compound = "O=C(CC1CN(C(=O)c2ccno2)C1)Nc1ccc2cc1CCc1cncc(c1)Nc1ncc(Cl)c(n1)N2 [Example D144, bis(trifluoroacetate)]"
class_assignment = "no (0)"

[[record]]
compound = "O=C(COc1ccc2cc1CCc1cncc(c1)Nc1ncc(Cl)c(n1)N2)N1CCN(Cc2cccnc2)CC1 [Example D255, tris(trifluoroacetate)]"
class_assignment = "no (0)"

[[record]]
compound = "Clc1cnc2nc1Nc1cccc(c1)CCNc1cccc(c1)N2 [Example D78, bis(trifluoroacetate)]"
class_assignment = "no (0)"

[[record]]
compound = "CC(C)(C)NC(=O)N1CCN(c2cc(-c3cc4cc(c3)Nc3ncc(Cl)c(n3)Nc3cccc(c3)OCC4)ccn2)CC1 [Example D41, bis(trifluoroacetate)]"
class_assignment = "yes (1)"

[[record]]
compound = "O=C(C[C@@H]1CCCN(C(=O)Nc2ccccc2)C1)Nc1ccc2cc1CCc1cncc(c1)Nc1ncc(Cl)c(n1)N2 [Example D198, bis(trifluoroacetate)]"
class_assignment = "yes (1)"

[[record]]
compound = "Clc1cnc2nc1Nc1cccc(c1)OCCc1cc(CN3CCNCC3)cc(c1)N2 [Example D191, tris(trifluoroacetate)]"
class_assignment = "no (0)"

